# test target: T1, human CD3εδ-Fc heterodimer (Hu CD3ε Fc / CD3δ Fc-HIS) (human, UniProt P04234 22-100)
# T1 construct: range 22-100; Produced in HEK 293 cells with a heterologous signal peptide; heterodimer purified by Ni Sepharose and Mono Q; also called Hu CD3εδ Fc heterodimer; CD3εδ Fc-HIS heterodimer; not shown: Fc-HIS part of CD3δ Fc-HIS
# T1 sequence (chain, as listed by the source mutant, form in doubt, chain 1 of 2): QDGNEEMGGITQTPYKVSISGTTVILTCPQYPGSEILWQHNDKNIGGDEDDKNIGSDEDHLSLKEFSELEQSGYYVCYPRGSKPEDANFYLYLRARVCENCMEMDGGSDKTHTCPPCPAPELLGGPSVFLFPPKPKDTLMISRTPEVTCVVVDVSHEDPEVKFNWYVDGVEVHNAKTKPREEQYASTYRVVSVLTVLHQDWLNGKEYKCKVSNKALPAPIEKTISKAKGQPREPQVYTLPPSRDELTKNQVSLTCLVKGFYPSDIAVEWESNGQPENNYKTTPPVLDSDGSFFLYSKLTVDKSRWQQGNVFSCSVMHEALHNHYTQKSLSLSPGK
# T1 sequence (P04234 22-100, stated change not applied, form in doubt, chain 2 of 2): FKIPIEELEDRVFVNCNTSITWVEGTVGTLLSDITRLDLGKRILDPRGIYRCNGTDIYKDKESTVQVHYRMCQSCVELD
# assay details: BLI (Octet), yeast-produced IgG on AHC sensor, CD3εδ-Fc 100 nM in solution, pH 6.0
observed property: Kd (nM)
Numbers only, in nM.

# input Indicate the recorded Kd value for this binder: ADI-74968 (Antibody No. 6), human IgG1 (antibody, V domains shown, Tested as human IgG1 (yeast-produced aglycosylated, or CHO-produced)) VH: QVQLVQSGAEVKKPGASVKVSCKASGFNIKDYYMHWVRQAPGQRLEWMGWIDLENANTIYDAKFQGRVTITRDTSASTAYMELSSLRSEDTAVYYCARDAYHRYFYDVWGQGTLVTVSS VL: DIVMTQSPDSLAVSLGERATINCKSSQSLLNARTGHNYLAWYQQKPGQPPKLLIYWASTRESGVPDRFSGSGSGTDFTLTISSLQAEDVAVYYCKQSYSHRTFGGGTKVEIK
# output 5.23
